assay: Oral bioavailability in rat at 1.5 mg/kg; assay type: ADME, organism-based; conditions: in vivo
Experimental Endpoint: bioavailability (%)
Please respond with the number in % and leave the unit unwritten.

Req: Find the recorded bioavailability belonging to O=C(O)c1ccc(NC(=O)[C@H](CC2CC2)c2ccc(-c3c(C(F)F)ccc(Cl)c3F)c[n+]2[O-])cc1 (mixture of isomers) and report it.
Resp: 89

* * *

experiment: Oral bioavailability in Sprague-Dawley rat at 3 mg/kg; type: ADME, organism-based; details: in vivo
Experimental Endpoint: bioavailability
Note to self: number, then unit, no commentary.

Req: Find the recorded bioavailability belonging to "C[C@@H]1CCC[C@H](c2ccc(-c3cc(Cl)ccc3-n3cc(Cl)nn3)oc2=O)c2cc(ccn2)-c2c(cnn2C(F)F)NC1=O" and report it.
Resp: 37.1%
